Origin of the recorded values: patent US10479794B2

# Tested on: human MDR1 P-gp
# protocolSummary: Assessment of efflux in MDCK cells transfected with the human MDR1 gene (MDCK assay)
# Type: in vitro ADME, canine
# testContext: dog, MDCK-MDR1, pH 7.4, MDCK-MDR1 monolayers, apical-to-basal, pH 7.4, 37° C.
Threshold rule: Papp A→B at 2 h greater than or equal to 60 ×10⁻⁶ cm/s is Y; below that, N.

molecule="O=C(NC1(c2ccc(C(F)(F)F)cc2F)CCOCC1)c1cnn2cc(F)cnc12 [Example 3]" qualitativelabel=Y
molecule="O=C(NC1(c2ccc(C(F)(F)F)cc2)CCOC1)c1cnn2cc(C3CC3)cnc12 (racemic) [Example 37]" qualitativelabel=Y
molecule="CC1(O)COCCC1(NC(=O)c1cnn2cc(C3CC3)cnc12)c1ccc(C(F)(F)F)cc1F (racemic) [Example 53]" qualitativelabel=N
molecule="Cc1cnc2c(C(=O)NC3(c4ccc(C(F)(F)F)cc4F)CCOCC3(C)O)cnn2c1 (single isomer, unassigned) [Example 83a]" qualitativelabel=N
molecule="Cc1cnc2c(C(=O)NC3(c4ccc(C(F)(F)F)cc4F)CCOCC3)cnn2c1 [Example 2]" qualitativelabel=Y
